measurement_target: UniProtKB Q72874
experiment_description: Affinity for HIV Protease
Numbered stars: 1 amine (or outer) side, 2 acyl side, 3 side chain; on linkers, the order of the positions; unused ones are H or OH. Square brackets hold non-standard residues; d marks the D form. Peptide text beside a SMILES is read from it. Phe(ψ(S)CH(OH)CH2N)Pro = O=C([C@@H]1CCCN1C[C@H](O)[C@H](Cc1ccccc1)N[*:1])[*:2]; Nle = CCCC[C@H](N)C(=O)O; Orn = NCCC[C@H](N)C(=O)O
measured_parameter: Log Kd
Numbers only.

# example entries with known answers
O=C1N(Cc2ccc3ccccc3c2)[C@H](Cc2ccccc2)[C@H](O)[C@@H](O)[C@@H](Cc2ccccc2)N1Cc1ccc2ccccc2c1 : -9.52
CCCC[C@H](NC(=O)[C@H](CCCC)NC(=O)[C@@H](NC(=O)[C@@H](NC(C)=O)[C@@H](C)O)[C@@H](C)CC)C(=O)N[C@@H](CCCN)C(=O)N[C@@H](CCCN=C(N)N)C(N)=O (Ac-TI[Nle][Nle][Orn]R-NH2) : -6.11
COC(=O)[C@@H](NC(=O)[C@@H](NC(=O)[C@H](C)N1CCC([C@H](C)NC(=O)[C@H](C)N)=C[C@@H](Cc2ccccc2)C1)C(C)C)C(C)C : -6.37
CC1(C)SC(C(NC(=O)Cc2ccccc2)C(=O)NCc2ccccc2)NC1C(=O)NC(Cc1ccccc1)C(O)CC(=O)NCC1=NC2C=CC=CC2=N1 (stereo not drawn) : -9.69

Parameter requested: Log Kd. Apply to each item below.
1. O=C(N[C@H]1c2ccccc2C[C@H]1O)[C@H](Cc1ccccc1)CC(O)C[C@@H](Cc1ccccc1)C(=O)N[C@H]1c2ccccc2C[C@H]1O
2. CC(C)[C@H](NC(=O)N(C)Cc1ccccn1)C(=O)N[C@@H](Cc1ccccc1)[C@H](O)[C@H](O)[C@H](Cc1ccccc1)NC(=O)[C@@H](NC(=O)N(C)Cc1ccccn1)C(C)C
3. CC(C)[C@H](NC(=O)N(C)Cc1ccccn1)C(=O)N[C@@H](Cc1ccccc1)[C@@H](O)[C@H](O)[C@H](Cc1ccccc1)NC(=O)[C@@H](NC(=O)N(C)Cc1ccccn1)C(C)C
4. CC[C@H](C)[C@H](NC(=O)[C@@H]1CCCN1C[C@H](O)[C@H](Cc1ccccc1)NC(=O)[C@H](CC(N)=O)NC(=O)[C@H](CC(C)C)NC(=O)[C@H](CO)NC(C)=O)C(=O)N[C@H](C(=O)OC)C(C)C (Ac-SLN[Phe(ψ(S)CH(OH)CH2N)Pro]IV-OMe)
5. CC(C)[C@H](NC(=O)N(C)Cc1ccccn1)C(=O)N[C@@H](Cc1ccccc1)C(O)C(O)[C@H](Cc1ccccc1)NC(=O)[C@@H](NC(=O)N(C)Cc1ccccn1)C(C)C (single isomer, unassigned)
6. CC1(C)SC(C(NC(=O)Cc2ccccc2)C(=O)NCc2ccccc2)NC1C(=O)NC(CO)Cc1ccccc1 (stereo not drawn)
7. CC=O

Response:
[-9.15, -10.1, -9.01, -9.63, -10.1, -8.1, -8.41]

Parameter requested: Log Kd. Apply to each item below.
1. CC(C)CN(C[C@@H](O)[C@H](Cc1ccccc1)NC(=O)O[C@H]1CCOC1)S(=O)(=O)c1ccc(N)cc1
2. CC(C)[C@H](NC(=O)N(C)Cc1ccccn1)C(=O)N[C@@H](Cc1ccccc1)C[C@@H](O)[C@H](Cc1ccccc1)NC(=O)[C@@H](NC(=O)N(C)Cc1ccccn1)C(C)C

Response:
-9.23
-10.5
